// values below are reported fold repression
Molecular target: T1, ECF33_375
T1 chain: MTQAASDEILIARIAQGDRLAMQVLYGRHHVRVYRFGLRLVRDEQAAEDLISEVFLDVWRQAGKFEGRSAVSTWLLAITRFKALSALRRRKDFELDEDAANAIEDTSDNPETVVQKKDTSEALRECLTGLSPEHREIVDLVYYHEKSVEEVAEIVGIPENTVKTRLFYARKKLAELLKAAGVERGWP

BINDER | fold repression
AS27_4265 (protein) MTGHPDVAEIADLAEGLLPTTRTTEVRQHLESCELCADVYASLTEIQGLLGTLPAPAPMPDDVAARIDAALAAEPPLGIADGTRVSRETSTPADRPAGHARPSSTGPGRKDRRRGGRRRIAVLGAVAAAAAIGIGSVVVSSLTEDSSSGNTAREQQTAIADTFSEGRLKDRVTNLVADGSAENGSRTPRSFGMESENGGETAENHVFKQPTVPECIRKGIGRDDAVIATEPGVYKGREALLVVLPDATNDTQVTAYIVETACVDQPAVGKAKILLEHSYARS | 1.07
AS35_3582 (protein) MNPQKHSASVAEEQMLAHFRAHAPQQPAPALDQAILAAARRQAAHVEPARSWWRRWLEASRRPRWQAAFASLLGVALVLGLVSHNVLDDAERQARPEVAFSDVPLRDGVAGAAAAKRAMRAPAAPAPLSGEMSEPPALLASYASSGEAPQLMAEAAPPAPAALADRPPAQAAQQAKVQAALAGDFVAQARGKAVAVKPEVLDEALGAVLALREQGKTEQAATQLAELQKRFPGENLVERLERLATIAASARKRP | 2.9
AS02_915 (protein) MEKTGQEWVSASVDGETDRQTLAELAADTDSHAKWQRYHLMGDAMRDELPQAMPLDLSARIAAALEDEPTILAPKVEREATQAPSRAVVVPFMRQLGQYGIAAAVALMAVVGVQNYQSTQDDAPLPVLNTRPLVGTATPVSLQTGPVANQNQGNANDQLLEQRRRINAYLQDHMLQQRLNTGAVVDDNSEVTPIPVNR | 2.44
